Test system: GBM4
protocol: Cell growth inhibition (Alamar Blue cell viability assay)
Format: cell-based
appliedConditions: Homo sapiens, GBM4 patient-derived neurosphere line, 72 hours treatment, triplicate
Protocol: The effect of GRMs on the growth in culture of human and mouse glioblastoma cells was examined. The GRMs mifepristone and CORT125134 inhibited growth in culture of each of five different glioblastoma cell lines. […] Cell growth inhibition was quantified by the Alamar Blue method using a commercial assay kit. Cell growth inhibition was determined (“read out”) after 72 hours of treatment. […] The IC50 values were calculated using commercial software (Prism 5 Software, GraphPad, La Jolla CA, USA). […]
Measured IC50 accompanies every entry in the list below.
Use µM as the unit, but write only the number.

molecule="Cn1cc(S(=O)(=O)N2CCC3=Cc4c(cnn4-c4ccc(F)cc4)C[C@]3(C(=O)c3cc(C(F)(F)F)ccn3)C2)cn1 [CORT125134]" recordedvalue=20.7

Now examine the next entry.
// query IC50 for CC#C[C@]1(O)CC[C@H]2[C@@H]3CCC4=CC(=O)CCC4=C3[C@@H](c3ccc(N(C)C)cc3)C[C@@]21C [Mifepristone, reference compound] ?
// result 24.1
